B1: KRT18 (parent)
chain: KSQDLAKIMADIRAQYDELARKNR

- Variants of: B1
- protocol-notes: protein stability index of a GFP-peptide fusion (GPS, HEK-293T) (PSI 1-6); higher = more stable;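 also: lentivirally expressed fusions sorted by FACS into six bins by GFP to DsRed ratio, PSI derived from sequencing read proportions per bin multiplied by bin number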
- experimental-setup: c terminus: a fixed tail appended
Records here are stratified by protein stability index; strata: LOW = under 2, MID = from 2 up to 3, HIGH = 3 and over

D4V | LOW
M9V | MID
Q3F | MID
I12C | HIGH
L5T | HIGH
K7V | HIGH
L19T | HIGH
A10D | MID
L5F | MID
L19R | HIGH

Categorize the following entry: I12V
HIGH

How about R21V ?
LOW

How about K22I ?
LOW
